These entries and their values trace back to PubChem BioAssay.

Entries and their measured inhibition follow.
# test summary: TLR3 IRF3 reporter activation blockers – cell-based, poly I:C stimulus, luciferase, 10K MLSCN set, primary screen (AID 602277)
# condition: HEK293-TLR3 RL24 IRF3 luciferase reporter, at 10 µM, hits give high values
reported property: inhibition (%)

> print(dat)
                                    compound  result.value
 1  COc1cc(S(=O)(=O)N2CCOCC2)ccc1NC(=O)COC(=O)c1ccccn1          20.5
 2  CS(=O)(=O)N(CC(=O)Nc1ccc2c(c1)OCCO2)Cc1ccccc1          17.2
 3  Cc1ccccc1-c1nc(CN2CCC(C(=O)NCCCN3CCCC3)CC2)c(C)o1          56.5
 4  Cc1cccn2c(=O)c3cc(C#N)c(=NC(=O)c4ccncc4)n(Cc4ccco4)c3nc12          19.4
 5  O=C(O)c1[nH]c2ccc(Cl)cc2c1CC(=O)N1CCN(C(=O)c2ccco2)CC1         0.844
 6  Cc1c(NC(=O)C(C)OC(=O)C(NC(=O)c2ccco2)C(C)C)c(=O)n(-c2ccccc2)n1C (stereo not given)          14.1
 7  NS(=O)(=O)c1ccc(NC(=O)N[C@@H](Cc2ccccc2)C(=O)O)cc1          16.6
 8         Cc1nc2c(=O)oc3ccccc3c2n1-c1ccccc1          23.7
 9  COc1cc(C2=NOC(C(=O)NCc3ccc(F)cc3)C2)cc(OC)c1OC (stereo not given)          85.8
10  Cc1ccc2c(c1)c1c3n2CC(=C2C(=O)OC(C)(C)OC2=O)NC3CCC1 (stereo not given)          1.44
11  COc1cccc(C2=NOC(C(=O)Nc3cc(C)nn3-c3ccccc3)C2)c1OC (stereo not given)          23.8
12  Cc1ccc(Cl)cc1N1CCN(C(=O)c2cn(C)c(=O)c3c2c2ccccc2n3C)CC1            28
13        CN(C)c1nc(Oc2ccc(N)cc2)nc(N(C)C)n1         -2.53
14  Cc1cc(Cl)c(S(=O)(=O)N2CCN(c3ccc(F)cc3)CC2)cc1OCC(N)=O          9.49
15  COc1ccc(CNc2oc(-c3cccc4ccccc34)nc2C#N)cc1          7.07
16         O=C(NCCc1ccccc1)c1cc(-c2ccco2)on1          -169
17  CC(NC(=O)c1ccco1)c1ccc2c(c1)OCCO2 (stereo not given)          15.1
18  Cc1c(C(=O)NCc2cccnc2)sc2ncn(CC(=O)N3CCCCC3C)c(=O)c12 (stereo not given)          23.8
19  CC(=O)Nc1ccc(S(=O)(=O)N2CCN(C(C)CCc3ccccc3)CC2)cc1 (stereo not given)          20.1
20      COc1ccc(COC(=O)c2n[nH]c3ccccc23)cc1F         -49.8
